measuredOn: Type B monoamine oxidase (MAO-B) (Rattus norvegicus, UniProt P19643)
Construct: served as the tissue source for mitochondrial MAO
Sequence (P19643 whole entry): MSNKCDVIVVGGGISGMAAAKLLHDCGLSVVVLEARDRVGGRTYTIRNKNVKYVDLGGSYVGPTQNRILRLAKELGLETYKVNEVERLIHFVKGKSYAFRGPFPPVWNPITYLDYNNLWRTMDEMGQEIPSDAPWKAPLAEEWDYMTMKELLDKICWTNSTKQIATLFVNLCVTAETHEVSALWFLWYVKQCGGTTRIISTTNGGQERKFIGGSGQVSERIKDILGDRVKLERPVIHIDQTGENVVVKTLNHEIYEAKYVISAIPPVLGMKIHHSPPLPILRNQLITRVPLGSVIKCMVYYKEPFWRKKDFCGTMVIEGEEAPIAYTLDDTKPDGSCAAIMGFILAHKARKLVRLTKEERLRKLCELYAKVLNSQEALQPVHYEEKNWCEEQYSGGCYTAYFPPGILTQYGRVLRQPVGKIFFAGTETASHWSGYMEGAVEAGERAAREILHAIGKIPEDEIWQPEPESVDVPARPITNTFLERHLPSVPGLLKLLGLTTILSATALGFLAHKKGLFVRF
methodDescription: Inhibition of Type B monoamine oxidase activity in rat brain synaptosomes
reportedConditions: [14C]-PEA substrate 200 μM, 15 min preincubation, 30 min at 37° C., pH 7.4, read-out: Inhibitory Concentration - IC50, Type-B
Structures can show the parent of a compound that is named as a salt.
endpointName: IC50 (µM)

compound="COc1ccc2c(c1)c1c(n2C)CC(CN)C1 (centres unmarked) [hydrochloride]" endpointname=IC50 measurementunit=µM resultnumber=287
compound="CCNCC1Cc2c(n(C)c3ccc(OC)cc23)C1 (centres unmarked) [maleate]" endpointname=IC50 measurementunit=µM resultnumber=713

Origin of values: patent US5350762A
